System: Zymoseptoria tritici (SEPTTR-184)
Assay: Efficacy of target gene fragments (MgCytB dsRNA tiles) on wheat plants, SEPTTR-184
Format: in vivo
Set-up: scale not given here
Conditions: 12.5 ppm; 3DC (curative)
measured_property: Average of 2 trials SEPTTR-184 3DC

Input: Tell me its Average of 2 trials SEPTTR-184 3DC given MgCytB-T2: 203 bp dsRNA of Zymoseptoria CytB region 2, location 603-805 (SEQ ID NO:5) (nucleic acid, listed as Zymoseptoria tritici, complementary strand of dsRNA) ACACGATACAGCGGGTTCAGGAAATCCTTTAGGTGTATCAGGTAACTACGATAGATTACCATTCGCCCCTTACTTTATATTCAAAGATTTAATAACAATATTTTTATTCATTATAGTGTTATCAATATTTATTTTCTTTATGCCTAACGTTTTAGGTGACAGCGAGAATTATGTTATGGCTAACCCTATGCAAACTCCACCTG as the entry.
Output: 77
